Target: human TrkA (Homo sapiens (Human))
Assay: Human TrkA inhibition assay (Test Example 2)
Type: biochemical
Conditions: human TrkA 1 nmol/L, ATP 500 μmol/L, 120 min at 37° C.; read-out: IC50 values (TrkA phosphorylation inhibition)
Quantity Name: IC50 (nM)

Example compounds with recorded IC50:
Prompt: For COc1ncc(-c2nn(-c3ccccc3)c(NC(=O)N[C@@H]3CN(CC(F)F)O[C@H]3c3ccc(F)c(F)c3)c2C)cn1 (racemic) [Compound I-526] , what is its reported IC50?
Completion: 22

Prompt: For COCC[C@@H]1C[C@@H](NC(=O)Nc2c(C)c(-c3cnc4c(c3)nnn4C)nn2-c2ccccc2)[C@H](c2ccnc(F)c2)O1 [Compound I-275] , what is its reported IC50?
Completion: 3

A: COCCN1C[C@@H](NC(=O)Nc2c(C)c(C3=CCN(C(C)=O)CC3)nn2-c2ccccc2)[C@H](c2ccc(F)c(F)c2)O1 (racemic) [Compound I-31]
B: COCCN1C[C@@H](NC(=O)Nc2c(C)c(-c3cnc4c(c3)[nH]c(=O)n4C)nn2-c2ccccc2)[C@H](c2cnc(F)c(F)c2)O1 [Compound I-258]
Prompt: When A and B are compared, which has the higher number for IC50? Refer to your chosen entry by its label in the reply.
Completion: A
(A: 0.78 nM, B: 0.48 nM)

====

Measured pIC50 of individual entries
Target: human TrkA (Homo sapiens (Human), UniProt P04629)
Sequence (P04629 440-796): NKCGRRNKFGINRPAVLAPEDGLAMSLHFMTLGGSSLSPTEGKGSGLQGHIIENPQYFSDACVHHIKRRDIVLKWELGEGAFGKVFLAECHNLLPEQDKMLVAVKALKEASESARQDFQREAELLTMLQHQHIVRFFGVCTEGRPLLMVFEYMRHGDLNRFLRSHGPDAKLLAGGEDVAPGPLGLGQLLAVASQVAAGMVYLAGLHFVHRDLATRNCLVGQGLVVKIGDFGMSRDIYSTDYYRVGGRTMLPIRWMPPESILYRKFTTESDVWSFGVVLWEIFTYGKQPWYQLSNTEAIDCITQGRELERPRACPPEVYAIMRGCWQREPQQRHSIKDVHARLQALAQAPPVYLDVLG
Test: Human TrkA inhibition assay (Test Example 2)
Format: biochemical
Conditions: Table 157, human TrkA inhibition; read-out: IC50
pIC50: −log10 of the molar value.

Example entries begin here.
Prompt: I have this compound here, COCCN1C[C@@H](NC(=O)Nc2c(C)c(-c3cnc4c(c3)OCO4)nn2-c2ccccc2)[C@H](c2ccnc(F)c2)O1 (racemic) [Compound I-606] , and I need its recorded pIC50.
Completion: > 7.00

Prompt: What does the record list as pIC50 for COc1ncc(-c2nn(-c3ccccc3)c(NC(=O)N[C@@H]3CN(CCC(F)(F)F)O[C@H]3c3ccc(F)c(F)c3)c2C)cn1 (racemic) [Compound I-621] ?
Completion: < 6.00

Prompt: pIC50 for COCCN1C[C@@H](NC(=O)Nc2c(C)c(-c3cnc(N4C[C@@H]5C[C@H]4CO5)nc3)nn2-c2ccccc2)[C@H](c2ccnc(F)c2)O1 [Compound I-591] ?
Completion: > 7.00

Next:
Prompt: Dear colleague, I am looking for the recorded pIC50 of the following compound: COCCN1C[C@@H](NC(=O)Nc2c(C(F)F)c(C)nn2-c2ccccc2)[C@H](c2ccnc(F)c2)O1 (racemic) [Compound I-673]
Completion: 6.00 to 7.00

Prompt: Any idea what pIC50 was measured for CCN1C[C@@H](NC(=O)Nc2c(C)c(OCCCC(=O)NCCO)nn2-c2ccccc2)[C@H](c2ccc(F)c(F)c2)O1 (racemic) [Compound I-668] ?
Completion: > 7.00

Prompt: What measured pIC50 goes with CCN1C[C@@H](NC(=O)Nc2c(C)c(OCCCC(=O)NC3CC3)nn2-c2ccccc2)[C@H](c2ccc(F)c(F)c2)O1 (racemic) [Compound I-665] ?
Completion: > 7.00

====

Target: human TrkA (Homo sapiens (Human))
Test: Human TrkA inhibition assay (Test Example 2)
Format: biochemical
Conditions: human TrkA 1 nmol/L, ATP 500 μmol/L, 120 min at 37° C.; read-out: IC50 values (TrkA phosphorylation inhibition)
Quantity Name: IC50 (nM)

Sample answers from the record:
Prompt: What value of IC50 has been reported for the following compound? COCCN1C[C@@H](NC(=O)Nc2c(C)c(-c3ccc(CN=S(C)(C)=O)cc3)nn2-c2ccccc2)[C@H](c2ccc(F)c(F)c2)O1 [Compound I-332]
Completion: 1.2

Prompt: Tell me the measured IC50 of COCCN1C[C@@H](NC(=O)Nc2c(C)c(-c3cnc4c(c3)NCC(=O)N4)nn2-c2ccccc2)[C@H](c2ccnc(F)c2)O1 (racemic) [Compound I-356] , please.
Completion: 1.5

Prompt: Would you mind telling me what IC50 value was observed for COCCN1C[C@@H](NC(=O)Nc2c(C)c(-c3ccc(OC)nc3)nn2-c2ccccc2)[C@H](c2ccnc(F)c2)O1 [Compound I-509] ?
Completion: 1.3

Prompt: Quick check: IC50 of COCCN1C[C@@H](NC(=O)Nc2c(C)c(-c3cnc4c(c3)c(=O)n(C)n4C)nn2-c2ccccc2)[C@H](c2cnc(F)c(F)c2)O1 (racemic) [Compound I-79] ?
Completion: 1.5

P: CCN1C[C@@H](NC(=O)Nc2c(C)c(-c3ccc(OC)nc3)nn2-c2ccccc2)[C@H](c2ccc(F)c(F)c2)O1 (racemic) [Compound I-627]
Q: COCC[C@@H]1C[C@@H](NC(=O)Nc2c(C)c(-c3cnc4c(c3)CC(=O)N4C)nn2-c2ccccc2)[C@H](c2ccnc(F)c2)O1 [Compound I-329]
R: COCC[C@@H]1C[C@@H](NC(=O)Nc2c(C)c(-c3cnc(C)nc3)nn2-c2ccccc2)[C@H](c2ccc(F)c(F)c2)O1 (racemic) [Compound I-28]
S: COCCN1C[C@@H](NC(=O)Nc2c(C)c(-c3cnn(C)c3)nn2-c2ccccc2)[C@H](c2ccc(F)c(F)c2)N1 (racemic) [Compound I-10]
Prompt: Returns the items ordered by IC50, from maximum to minimum. Output spec: a listing of the labels in the requested order.
Completion: S, P, R, Q
